Source listed as patent US12528790B2.

System: RSV A2 strain
Assay explanation: In vitro CPE (CytoPathic Effect) inhibition effect evaluation test, RSV type A
Type: cell-based
Condition notes: human respiratory syncytial virus; inhibitory effect against RSV type A (RSV A2 strain), HEp-2 cells, CPE inhibition; read-out: EC50
pEC50: −log10 of the molar value.
Measured metric: pEC50

Name the recorded pEC50 of the item O=C(NC1(C(=O)O)C2CC3CC(C2)CC1C3)c1cnc(N2CC3(CCCC3)c3cc(OC4CCN(c5ncccn5)CC4)ccc32)nc1C(F)(F)F (stereo not drawn) in your answer.
> 8.00

***
Entry `O=C(N[C@@]1(C(=O)O)[C@@H]2C[C@@H]3C[C@H]1C[C@@](F)(C3)C2)c1cnc(N2CC3(CCOCC3)c3cc(OC4CCN(c5ncccn5)CC4)ccc32)nc1C(F)(F)F` needs its pEC50 filled in; supply it.
> 8.00

// Input: O=C(NC1(C(=O)O)C2CC3CC(C2)CC1C3)c1cnc(-c2cn(C3CCC(F)(F)CC3)c3cc(C(=O)N4CCN(CC(F)(F)F)CC4)ccc23)nc1C(F)(F)F (stereo not drawn) . Output its pEC50 only.
> 8.00

Determine its reported pEC50: O=C(NC1(C(=O)O)C2CC3CC(C2)CC1C3)c1cnc(N2CC3(CCOCC3)c3cc(O)ccc32)nc1C(F)(F)F (stereo not drawn)
7.00 to 8.00

Give me measured pEC50, please, for this compound: O=C(NC1(C(=O)O)C2CC3CC(C2)CC1C3)c1cnc(N2CC3(CCOCC3)c3cc(OCC(F)F)ccc32)nc1C(F)(F)F (stereo not drawn)
> 8.00

Let me know recorded pEC50 for O=C(NC1(C(=O)O)C2CC3CC(C2)CC1C3)c1cnc(-c2cn(C3CCOCC3)c3cc(O[C@H]4CC[C@H](N5CC(F)(F)C5)CC4)ccc23)nc1C(F)(F)F (stereo partly drawn) , thanks.
> 8.00

----------
System: RSV A2 strain
Assay explanation: In vitro CPE (CytoPathic Effect) inhibition effect evaluation test, RSV type A
Assay type: cell-based
Condition notes: human respiratory syncytial virus; inhibitory effect against RSV type A (RSV A2 strain), HEp-2 cells, CPE inhibition; read-out: EC50
Overview of reported EC50 across a group of molecules:

Give the measured EC50 for O=C(NC1(C(=O)O)C2CC3CC(C2)CC1C3)c1cnc(-c2cn(C3CCC(F)(F)CC3)c3cc(-n4ncc5c4CCN(CC(F)(F)F)C5)ccc23)nc1C(F)(F)F (stereo not drawn)
< 10 nM

Entry O=C(NC1(C(=O)O)C2CC3CC(C2)CC1C3)c1cnc(-c2cn(C3CC3)c3cc(O[C@H]4CC[C@H](N5CC(F)(F)C5)CC4)ccc23)nc1C(F)(F)F (stereo partly drawn) needs its EC50 filled in; supply it.
< 10 nM

Would you kindly look at the next entry?
Consider the molecule NC(=O)C1(NC(=O)c2cnc(N3CC4(CCOCC4)c4cc(OCCN5CCOCC5)ccc43)nc2C(F)(F)F)C2CC3CC(C2)CC1C3 (stereo not drawn) and give its recorded EC50.
< 10 nM

----------
Recorded EC50 values for a group of compounds are listed next.
Test system: RSV A2 strain
Assay explanation: In vitro CPE (CytoPathic Effect) inhibition effect evaluation test, RSV type A
Type: cell-based
Condition notes: human respiratory syncytial virus; inhibitory effect against RSV type A (RSV A2 strain), HEp-2 cells, CPE inhibition; read-out: EC50

Return EC50 for the following compound: O=C(NC1(C(=O)O)C2CC3CC(C2)CC1C3)c1cnc(-n2c3ccccc3c3cc(OCCC4CCOCC4)ccc32)nc1C(F)(F)F (stereo not drawn) [Compound I-141]
< 0.01 µM

Please look at this compound and report its EC50: CCC(CC)n1cc(-c2ncc(C(=O)NC3(C(=O)O)C4CC5CC(C4)CC3C5)c(C(F)(F)F)n2)c2ccc(OC3CCN(c4ncc(F)cn4)CC3)cc21 (stereo not drawn) [Compound I-421]
< 0.01 µM

Turning to the following compound.
Using the record for CC(F)(F)c1nc(N2CC3(CCOCC3)c3cc(O[C@H]4CC[C@H](NCC(F)(F)F)CC4)ccc32)ncc1C(=O)NC1(C(=O)O)C2CC3CC(C2)CC1C3 (stereo partly drawn) [Compound I-552] , state its measured EC50.
< 0.01 µM
